Experimental system: Cytochrome P450 2C9 (Homo sapiens) (UniProt P11712)
Sequence (P11712 whole entry, looked up): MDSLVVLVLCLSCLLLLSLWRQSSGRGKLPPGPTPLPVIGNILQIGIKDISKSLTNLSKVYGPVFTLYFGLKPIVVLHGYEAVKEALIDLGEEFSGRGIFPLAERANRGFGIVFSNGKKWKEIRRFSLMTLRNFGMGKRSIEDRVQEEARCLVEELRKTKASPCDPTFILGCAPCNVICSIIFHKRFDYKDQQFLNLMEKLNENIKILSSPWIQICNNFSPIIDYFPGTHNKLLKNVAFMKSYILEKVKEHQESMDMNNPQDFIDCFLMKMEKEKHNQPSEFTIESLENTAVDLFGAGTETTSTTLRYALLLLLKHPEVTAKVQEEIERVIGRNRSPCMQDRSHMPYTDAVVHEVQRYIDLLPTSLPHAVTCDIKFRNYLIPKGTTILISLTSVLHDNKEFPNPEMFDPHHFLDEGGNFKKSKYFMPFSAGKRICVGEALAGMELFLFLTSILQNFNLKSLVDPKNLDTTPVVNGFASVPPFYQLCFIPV
Protocol: blockers of cytochrome P450 2C9 activity – biochemical, luminescence, ADME assay, primary screen (AID 777)
Measurement parameters: CYP2C9 Supersomes, luciferin-H conversion, at 5 µM, active compounds read high
Among all 96,000 compounds or so, about 19,000 (20%) were called active. A selection follows.
inhibition for assorted compounds
Your answer should be a plain number; it is taken to be in %.

These recorded examples may help you get a feel for the data.
CC(C)OC(=O)CN1C(=O)c2ccccc2C1=O : 4.9
CC(=O)c1ccc(-n2nnnc2SCC(=O)N2CCN(C(=O)c3ccco3)CC2)cc1 : 5.3
COc1ccc(-c2c3c(=O)n(C)c(=O)n(C)c3cn2NC(C)=O)cc1 : 1.5
COc1cc(/C=N\NC(=O)CNC(=O)c2cccc([N+](=O)[O-])c2)ccc1O : -11.8
CCC(=O)c1ccc(OCC(O)CN2C(=O)NC(C)(C)C2=O)cc1 (stereo not given) : 0.4
CC(C)NC(=O)C(=O)NCCN1CCN(S(=O)(=O)c2ccc(Cl)cc2)CC1 : 20.7
CCc1nnc(NC(=O)CCC(=O)O)s1 : -9.1
COc1ccc(N(CC(=O)NC(C)(C)C)C(=O)c2ccco2)cc1 : 9.6

## Task GET /values?readout=inhibition&item= COc1ccc(/C=C2\CCCC3C2=NN(C(=O)c2scnc2C)C3c2ccc(OC)cc2)cc1 (stereo not given)
## Result 83.4

## Task GET /values?readout=inhibition&item= CCOc1ccccc1C1CC(c2ccccc2)Nc2nc(N)nn21 (stereo not given)
## Result 12.8
